Measured values drawn from patent US20210395650A1 for this set.

Below is a list of entries, each paired with its recorded protease activity in the course of time of storage at 37° C. value.
Target: Savinase® 16.0L (Lederbergia lenta, UniProt P29600)
Construct: purchased Sigma-Aldrich
Sequence (P29600 whole entry): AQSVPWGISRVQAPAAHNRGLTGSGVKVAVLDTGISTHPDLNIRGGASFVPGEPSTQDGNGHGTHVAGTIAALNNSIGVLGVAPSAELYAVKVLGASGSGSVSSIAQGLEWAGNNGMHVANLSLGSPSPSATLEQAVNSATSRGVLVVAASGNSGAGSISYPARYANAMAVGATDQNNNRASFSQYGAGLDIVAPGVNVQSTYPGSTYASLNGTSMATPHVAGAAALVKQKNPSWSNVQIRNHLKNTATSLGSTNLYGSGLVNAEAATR
Assay: Protease storage stability in liquid formulations at 37° C. (Suc-AAPF-pNA assay)
Type: biochemical
Settings: base formulation V, 2.0 wt% compound, 0.7 wt% Savinase 16.0 L; 35 d
Please give the number followed by its unit.

Solved cases (3 shown):
1) O=C(O)CC(O)(CC(=O)O)C(=O)O [B.1, citric acid, reference compound]; 50%
2) CCCCOC(=O)CC(O)(CC(=O)OCCCC)C(=O)OCCCC [A.3, Tributylcitrate]; 74%
3) O=C(CC(O)(CC(=O)OCc1ccccc1)C(=O)OCc1ccccc1)OCc1ccccc1 [A.8, Tribenzylcitrate]; 73%

Turning to the following molecule.
The molecule identified as CCOC(=O)CC(O)(CC(=O)OCC)C(=O)OCC [A.1, Triethylcitrate] registered its protease activity in the course of time of storage at 37° C. at 75%
